Where these numbers come from: patent US6168954A

test: GST conjugation activity with chlorimuron ethyl (HPLC); assay type: biochemical; settings: 0.4 mM electrophilic substrate, 4 mM glutathione, 0.1 M MOPS pH 7.0, corrected for uncatalyzed reaction
Measure name: Activity of soybean GST enzyme, Chlorimuron Ethyl (nmol/min/mg)
Unit nmol/min/mg implied. Number only.

# return recorded Activity of soybean GST enzyme, Chlorimuron Ethyl for input ses8w.pk0028.c6: soybean type III GST encoded by cDNA insert in clone ses8w.pk0028.c6 (protein) MAANQEDVKLLGATGSPFVCRVQIALKLKGVQYKFLEENLRNKSELLLKSNPVHKKVPVFIHNEKPIAESLVIVEYIDETWKNNPILPSDPYQRALARFWSKFIDDKVVGAAWKYIYTVDEKEREKNVEESYEALQFLENELKDKKFFGGEEIGLVDIAAVFIAFWIPIIQEVLGLKLFTSEKFPKLYKWSQEFINHPVVKQVLPPRDQLFAFYKACHESLSASK
0.2
